Test system: TTR
Experiment: TTR editing in primary human hepatocytes transfected with Spy Cas9 mRNA and sgRNAs (Table 13)
Assay type: cell-based
Conditions: primary human hepatocytes co-transfected with Spy Cas9 mRNA (SEQ ID NO:2) and sgRNAs, 12.5 nM
Strand notation (5' to 3'): a small letter for the sugar, then the base; units joined by * are phosphorothioate-linked, units joined directly phosphodiester-linked; [ ] holds rarer units or linkages, { } end groups; capitals alone tell only the bases. m = 2'-O-methyl; r = 2'-OH (RNA)
Property label: Avg % Edit (%)
Numbers only here, please. The scale is %.

The reported Avg % Edit of the molecule G000495: TTR sgRNA modified sequence, Human, SEQ ID No. 102; guide sequence of CR003343 (nucleic acid) guide: mC*mA*mG*rArGrGrArCrArCrUrUrGrGrArUrUrCrArCrGrUrUrUrUrArGrAmGmCmUmAmGmAmAmAmUmAmGmCrArArGrUrUrArArArArUrArArGrGrCrUrArGrUrCrCrGrUrUrArUrCrAmAmCmUmUmGmAmAmAmAmAmGmUmGmGmCmAmCmCmGmAmGmUmCmGmGmUmGmCmU*mU*mU*mU was 47.77

The reported Avg % Edit of the molecule G000498: TTR sgRNA modified sequence, Human, SEQ ID No. 105; guide sequence of CR003359 (nucleic acid) guide: mA*mG*mU*rGrArGrUrCrUrGrGrArGrArGrCrUrGrCrArGrUrUrUrUrArGrAmGmCmUmAmGmAmAmAmUmAmGmCrArArGrUrUrArArArArUrArArGrGrCrUrArGrUrCrCrGrUrUrArUrCrAmAmCmUmUmGmAmAmAmAmAmGmUmGmGmCmAmCmCmGmAmGmUmCmGmGmUmGmCmU*mU*mU*mU was 60.02

The reported Avg % Edit of the molecule G000496: TTR sgRNA modified sequence, Human, SEQ ID No. 103; guide sequence of CR005304 (nucleic acid) guide: mG*mG*mC*rCrGrUrGrCrArUrGrUrGrUrUrCrArGrArArGrUrUrUrUrArGrAmGmCmUmAmGmAmAmAmUmAmGmCrArArGrUrUrArArArArUrArArGrGrCrUrArGrUrCrCrGrUrUrArUrCrAmAmCmUmUmGmAmAmAmAmAmGmUmGmGmCmAmCmCmGmAmGmUmCmGmGmUmGmCmU*mU*mU*mU was 63.30
